Overview of reported β1 pA2 value, Left atrium across a group of compounds:
System under test: β1 (Rattus norvegicus)
Construct: The right and left atria were then separated; from tissue; host or cells: isolated rat right atrium (spontaneously beating) and left atrium (electrically driven)
Protocol details: Isolated rat left atrium (electrically driven), antagonism of L-isoproterenol (Schild plot)
Study conditions: vs L-isoproterenol, mean ± S.E. of six to eight
Excerpt: When the spontaneously beating rate of right atria reached a certain stability, cumulative administration of L-isoproterenol from 1×10^−[…] M caused the heart rate to increase continuously, and a cumulative dose-response curve was obtained. Then the L-isoproterenol was thoroughly washed off with Kreb's solution to recover the right atria's heart rate stability. […]

- Compound: "COC(=O)C1=C(C)NC(C)=C(C(=O)OC)C1c1ccc(OCC(O)CNCCOc2ccccc2OC)cc1 (stereo not shown)"
  β1 pA2 value, Left atrium: 6.81
- Compound: "COC(=O)C1=C(C)NC(C)=C(C(=O)OC)C1c1ccc(OCC(O)CNCCOc2ccccc2Cl)c(OC)c1 (stereo not shown)"
  β1 pA2 value, Left atrium: 6.15
- Compound: "COC(=O)C1=C(C)NC(C)=C(C(=O)OC)C1c1ccc(OCC(O)CN2CCN(c3ccccc3Cl)CC2)c(OC)c1 (stereo not shown)"
  β1 pA2 value, Left atrium: 7.23
- Compound: "COC(=O)C1=C(C)NC(C)=C(C(=O)OC)C1c1ccc(OCC(O)CNCCOc2ccccc2C)c(OC)c1 (stereo not shown)"
  β1 pA2 value, Left atrium: 6.31

====

System under test: β1 (Rattus norvegicus, UniProt P18090)
Construct: The right and left atria were then separated; from tissue; host or cells: isolated rat right atrium (spontaneously beating) and left atrium (electrically driven)
Sequence (P18090 whole entry): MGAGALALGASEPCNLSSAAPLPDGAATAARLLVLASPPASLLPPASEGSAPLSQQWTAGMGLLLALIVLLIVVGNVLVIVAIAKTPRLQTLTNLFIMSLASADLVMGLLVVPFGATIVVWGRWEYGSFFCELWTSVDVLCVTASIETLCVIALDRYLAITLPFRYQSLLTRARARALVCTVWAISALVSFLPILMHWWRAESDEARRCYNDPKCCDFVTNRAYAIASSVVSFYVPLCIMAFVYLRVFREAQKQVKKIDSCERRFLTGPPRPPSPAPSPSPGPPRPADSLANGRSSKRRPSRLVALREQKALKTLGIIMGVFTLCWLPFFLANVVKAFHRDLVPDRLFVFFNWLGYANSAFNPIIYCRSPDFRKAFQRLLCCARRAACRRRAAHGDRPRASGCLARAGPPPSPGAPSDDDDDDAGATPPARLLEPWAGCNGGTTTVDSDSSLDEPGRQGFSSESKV
Protocol details: Isolated rat right atrium, antagonism of L-isoproterenol-induced rate increase (Schild plot)
Study conditions: vs L-isoproterenol, mean ± S.E. of six to eight

- Compound: "COC(=O)C1=C(C)NC(C)=C(C(=O)OC)C1c1ccc(OCC(O)CNCCOc2ccccc2C)c(OC)c1 (stereo not shown)"
  System under test: "β1 (Rattus norvegicus, UniProt P18090)"
  β1 pA2 value, Right atrium: 7.23
- Compound: "COC(=O)C1=C(C)NC(C)=C(C(=O)OC)C1c1ccc(OCC(O)CNCCOc2ccccc2OC)cc1 (stereo not shown)"
  System under test: "β1 (Rattus norvegicus, UniProt P18090)"
  β1 pA2 value, Right atrium: 6.61
- Compound: "COC(=O)C1=C(C)NC(C)=C(C(=O)OC)C1c1ccc(OCC(O)CNCCOc2ccccc2Cl)c(OC)c1 (stereo not shown)"
  System under test: "β1 (Rattus norvegicus, UniProt P18090)"
  β1 pA2 value, Right atrium: 6.24
- Compound: "COC(=O)C1=C(C)NC(C)=C(C(=O)OC)C1c1ccc(OCC(O)CN2CCN(c3ccccc3Cl)CC2)c(OC)c1 (stereo not shown)"
  System under test: "β1 (Rattus norvegicus, UniProt P18090)"
  β1 pA2 value, Right atrium: 7.01

====

System under test: β2 (Cavia porcellus)
Construct: a portion of tracheal approximately 4 cm long was removed; from tissue; host or cells: isolated guinea pig trachea (reserpinised animals)
Sequence (Q8K4Z4 whole entry): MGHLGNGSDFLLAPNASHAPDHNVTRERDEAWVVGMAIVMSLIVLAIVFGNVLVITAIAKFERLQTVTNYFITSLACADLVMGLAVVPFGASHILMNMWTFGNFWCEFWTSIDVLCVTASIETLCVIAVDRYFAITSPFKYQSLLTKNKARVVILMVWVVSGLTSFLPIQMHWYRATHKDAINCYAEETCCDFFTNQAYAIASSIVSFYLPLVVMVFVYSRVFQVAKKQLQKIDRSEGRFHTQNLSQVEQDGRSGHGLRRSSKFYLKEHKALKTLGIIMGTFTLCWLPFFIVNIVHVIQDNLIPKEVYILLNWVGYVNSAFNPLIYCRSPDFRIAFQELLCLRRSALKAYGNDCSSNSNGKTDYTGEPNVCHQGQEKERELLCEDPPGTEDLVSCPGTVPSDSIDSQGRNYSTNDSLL
Protocol details: Isolated guinea pig trachea, antagonism of L-isoproterenol relaxation (Schild plot)
Study conditions: vs L-isoproterenol, mean ± S.E. of six to eight
Overview of reported β2 pA2 value, Trachea across a group of compounds:
Reported metric: β2 pA2 value, Trachea

- Compound: "COC(=O)C1=C(C)NC(C)=C(C(=O)OC)C1c1ccc(OCC(O)CN2CCN(c3ccccc3Cl)CC2)c(OC)c1 (stereo not shown)"
  Measured number: 5.54
- Compound: "COC(=O)C1=C(C)NC(C)=C(C(=O)OC)C1c1ccc(OCC(O)CNCCOc2ccccc2Cl)c(OC)c1 (stereo not shown)"
  Measured number: 5.07
- Compound: "COC(=O)C1=C(C)NC(C)=C(C(=O)OC)C1c1ccc(OCC(O)CNCCOc2ccccc2OC)cc1 (stereo not shown)"
  Measured number: 6.48
- Compound: "COC(=O)C1=C(C)NC(C)=C(C(=O)OC)C1c1ccc(OCC(O)CNCCOc2ccccc2C)c(OC)c1 (stereo not shown)"
  Measured number: 5.70

Reference source for all entries: patent US6846826B2
